Assay: NCI Yeast Anticancer Drug Screen. Data for the cln2 rad14 strain (AID 165);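 note: 0% = growth equal to vehicle treated cultures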
Conditions: S. cerevisiae cln2 rad14 strain, at 50.0 µM, active compounds read high
About 79,000 compounds went through this panel and 15% of them were active in at least one assay; those are over-represented in the sample as a whole.
Rule: growth inhibition of 10% or more gives Y; anything lower gives N.

[[record]]
compound = "Cc1nc(Nc2ccccc2Cl)sc1C(=O)CC(=O)C(N)=O"
assigned_label = "Y"

[[record]]
compound = "COC1(OC)C2(Cl)CCC1(Cl)C(OC(C)=O)C2 (stereo not given)"
assigned_label = "Y"

[[record]]
compound = "O=C(O)c1cnc2cc3c(cc2c1Nc1cccc(C(F)(F)F)c1)OCO3"
assigned_label = "N"

[[record]]
compound = "O=C1N(CCN2CCC3(CC2)OCCO3)CCN1c1cc(Cl)cc(Cl)c1"
assigned_label = "Y"

[[record]]
compound = "CCOC(=O)C[n+]1ccc(C(=O)OCC)cc1"
assigned_label = "N"

[[record]]
compound = "O=C(O)CS/C(=N\\S(=O)(=O)c1ccccc1)Nc1cccc(Cl)c1"
assigned_label = "Y"

[[record]]
compound = "Cc1cc(/C=N/NC(=O)c2ccccc2NC(=O)c2ccccc2Cl)ccc1O"
assigned_label = "Y"

[[record]]
compound = "COC1C(/C=C/C(C)=O)OC2OC(C)(C)OC21 (stereo not given)"
assigned_label = "N"

[[record]]
compound = "CN(NC(=O)CCCl)C1=NCCCCN1"
assigned_label = "Y"

[[record]]
compound = "Cc1cccc(C(=O)C(O)c2cccc(C)n2)n1 (stereo not given)"
assigned_label = "N"

[[record]]
compound = "O=c1oc2ccccc2c2c1Sc1ccccc1N2"
assigned_label = "Y"

[[record]]
compound = "Fc1cccc(Cl)c1/C=N\\N=C1c2ccccc2-c2ccccc21"
assigned_label = "N"

[[record]]
compound = "C(=N\\N=C\\c1ccccn1)/c1ccccn1"
assigned_label = "N"

[[record]]
compound = "CCN(CC)c1ccc(CO)cc1"
assigned_label = "N"

[[record]]
compound = "CCCCCCCSCC(O)COC(c1ccccc1)(c1ccccc1)c1ccccc1 (stereo not given)"
assigned_label = "N"

[[record]]
compound = "COC(=O)C(/C(=N\\O)C(=O)Nc1cccc(Cl)c1C)c1cnc2ccccc2n1 (stereo not given)"
assigned_label = "Y"

[[record]]
compound = "CC(NC(=O)N(C)C)NC(=O)N(C)C"
assigned_label = "N"

[[record]]
compound = "O=C1CCCCCCCCCCOCCCCO1"
assigned_label = "Y"

[[record]]
compound = "CN1C(=O)C(O)(CC(=O)c2ccccc2)c2ccccc21 (stereo not given)"
assigned_label = "N"

[[record]]
compound = "CC(=O)Oc1ccccc1C1CCCCC1"
assigned_label = "Y"

[[record]]
compound = "Cc1ccc(S(=O)(=O)N/N=C2/CC3CCC2C3)cc1 (stereo not given)"
assigned_label = "N"

[[record]]
compound = "Cn1c(=O)c2c(nc(NCCO)n2Cc2ccccc2)n(C)c1=O"
assigned_label = "Y"

[[record]]
compound = "O=C(CS(=O)(=O)Cc1ccccc1)N1CCOCC1"
assigned_label = "N"

[[record]]
compound = "C=C(C)/C=N/NS(=O)(=O)c1ccc(C)cc1"
assigned_label = "N"

[[record]]
compound = "COCCCN1C(=O)C2c3[nH]c4ccccc4c3C3CCC(C(C)(C)C)CC3C2C1=O (stereo not given)"
assigned_label = "Y"


---

compounds and their reported growth inhibition
Assay: NCI Yeast Anticancer Drug Screen. Data for the mlh1 rad18 strain (AID 175)
Conditions: S. cerevisiae mlh1 rad18 strain growth inhibition; at 50.0 µM; active compounds read high
About 79,000 compounds went through this panel and 15% of them were active in at least one assay; those are over-represented in the sample as a whole.
observable: growth inhibition (%)

[[record]]
compound = "CCNC(=O)C(CC)(CO)CO"
endpoint_result = 4.5

[[record]]
compound = "CCN(CC)CCOC(C)=O"
endpoint_result = -26.3

[[record]]
compound = "CSc1nc(SC)c2cnn(C3OC(CO)C(O)C3O)c2n1 (configuration not stated)"
endpoint_result = 33.4

[[record]]
compound = "CCCCN(CC)NC(=S)Nc1ccccc1"
endpoint_result = 5.6

[[record]]
compound = "O=C1OCC/C1=C\\c1cccc([N+](=O)[O-])c1"
endpoint_result = 26.9

[[record]]
compound = "NC(=S)n1nc(-c2ccccc2)c(N=Nc2ccc(Br)cc2)c1-c1ccccc1"
endpoint_result = 12.4

[[record]]
compound = "Cc1ccc(C2CCC(C#N)=CN2C)cc1 (configuration not stated)"
endpoint_result = 3.6

[[record]]
compound = "COc1ccc(OC)c2c1ccc1c(C)c3ccccc3c(C)c12"
endpoint_result = 26.2

[[record]]
compound = "CCN1C(=O)CCN(S(=O)(=O)c2ccc(-n3nc(C)cc3C)cc2)C1=S"
endpoint_result = -2.3

[[record]]
compound = "COc1ccc(Oc2nc(=O)n3ccccc3n2)cc1"
endpoint_result = -20.7

[[record]]
compound = "COc1ccc(S(=O)(=O)O)cc1NS(=O)(=O)c1ccc(C)cc1"
endpoint_result = -2.1

[[record]]
compound = "CC(=O)OCC1OC(n2cnc3c(N)ncnc32)C(O)C1O (configuration not stated)"
endpoint_result = -11.2


---

Below, each of the molecules is paired with its reported growth inhibition value.
Test: NCI Yeast Anticancer Drug Screen. Data for the rad50 strain (AID 155);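 note: 0% = growth of vehicle-only cultures of the same strain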
Settings: S. cerevisiae rad50 strain growth inhibition; at 50.0 µM; active compounds read high
This is part of a sample that, as a whole, favours compounds with a hit. Of some 79,000 tested, about 15% had one in any assay.
observable: growth inhibition (%)

[[record]]
molecule = "Cc1ccc(NC(=O)Oc2cc(C)c(Cl)cc2C(C)C)cc1"
observable = "growth inhibition"
endpoint_result = -3.9

[[record]]
molecule = "COc1ccc2c(c1)C1(C)CCC(=O)C(C)=C1CC2 (stereo not drawn)"
observable = "growth inhibition"
endpoint_result = 17.9

[[record]]
molecule = "CCC(C)NS(=O)(=O)c1ccc(Cl)cc1 (stereo not drawn)"
observable = "growth inhibition"
endpoint_result = 18.4

[[record]]
molecule = "C[C@]1(CO)[C@H]2CC[C@@]34C=C[C@@](CO)(CC[C@H]3[C@]2(C)CC[C@H]1O)C4"
observable = "growth inhibition"
endpoint_result = 5.45

[[record]]
molecule = "O=C(Nc1ccc2ccccc2c1)OC1CCS(=O)(=O)C1 (stereo not drawn)"
observable = "growth inhibition"
endpoint_result = -0.75

[[record]]
molecule = "Cc1cc(C)c(C)c(CN)c1C"
observable = "growth inhibition"
endpoint_result = -20

[[record]]
molecule = "CC(C)(C)OC(=O)Cc1ccc([N+](=O)[O-])cc1"
observable = "growth inhibition"
endpoint_result = 2

[[record]]
molecule = "COc1ccccc1NC(=O)CC(=O)n1nc(C)c(N=Nc2ccccc2F)c1C"
observable = "growth inhibition"
endpoint_result = -41.6

[[record]]
molecule = "Cc1ncc(CSc2ccccc2N)c(CO)c1O"
observable = "growth inhibition"
endpoint_result = -10.8

[[record]]
molecule = "O=[N+]([O-])c1ccccc1SCl"
observable = "growth inhibition"
endpoint_result = 11.7

[[record]]
molecule = "COc1ccc(C(O)C2CCCN(C)S2(=O)=O)cc1 (stereo not drawn)"
observable = "growth inhibition"
endpoint_result = 13.4

[[record]]
molecule = "CN(C)CCCNC(=O)/C=C\\C(=O)O"
observable = "growth inhibition"
endpoint_result = 5.8

[[record]]
molecule = "CCc1ccc(CC)c(OC)c1"
observable = "growth inhibition"
endpoint_result = 16.6


---

Test: NCI Yeast Anticancer Drug Screen. Data for the mlh1 rad18 strain (AID 175)
Conditions: S. cerevisiae mlh1 rad18 strain growth inhibition; at 50.0 µM; active compounds read high
Compounds without any hit were thinned out: in the full panel of roughly 79,000, 15% have a hit. Calls of active or inactive are those of the source. Rule as the data show it: active = growth inhibition above about 70%; inactive = the rest.
observable: growth inhibition

[[record]]
compound = "CCOC(=O)C(C)c1nc2cc(N3CCOCC3)c(F)cc2[nH]c1=O (stereo not given)"
endpoint_result = "4.95% (inactive)"

[[record]]
compound = "CCOC(=O)c1ccc(OC)c2[nH]c3c(c(=O)c12)C(=O)c1[nH]c2c(OC)ccc(C(=O)OCC)c2c(=O)c1C3=O"
endpoint_result = "-25.2% (inactive)"

[[record]]
compound = "Cc1nc(C(=O)O)ccc1O"
endpoint_result = "4% (inactive)"

[[record]]
compound = "COc1nc(C(=O)O)c(Cl)c(OC)c1Cl"
endpoint_result = "-35% (inactive)"

[[record]]
compound = "Cc1nsc2[nH]c(=O)n(Nc3ccc(O)cc3)c(=O)c12"
endpoint_result = "-4.9% (inactive)"

[[record]]
compound = "CCN(CC)CCOc1cccc(O)c1"
endpoint_result = "-2.9% (inactive)"

[[record]]
compound = "Cc1cc[c]([Sb]2([c]3ccc(C)cc3)([c]3ccc(C)cc3)[NH]c3cc(C(c4ccccc4)(c4ccccc4)c4ccccc4)cc(C(C)(C)C)c3[O]2)cc1"
endpoint_result = "11.1% (inactive)"

[[record]]
compound = "COc1ccc2ccccc2c1C1=NC(C)(C)CO1"
endpoint_result = "-16.6% (inactive)"

[[record]]
compound = "Cc1cc(C(=O)CSC(=S)SC(C)(C)C)ccc1Cl"
endpoint_result = "-5.2% (inactive)"

[[record]]
compound = "c1ccc(COC2COC(OCc3ccccc3)C(OCc3ccccc3)C2OCc2ccccc2)cc1 (stereo not given)"
endpoint_result = "-3.3% (inactive)"

